- assayText: Pharmacokinetic evaluation in SD rat (oral)
- Format: in vivo
- settings: male, plasma, about 2 mg/kg
observable: bioavailability (%)
Give the number; % is assumed, so skip it.

The reported bioavailability of the compound CO[C@@H]1C[C@@H](CO)OC[C@@H]1Nc1ncnc2[nH]cc(C(=O)c3ccc(Oc4ccccc4)cc3Cl)c12 [Compound 4] was 57.3

###

- assayText: Pharmacokinetic evaluation in CD-1 mouse (intravenous)
- Type: in vivo
- settings: male, plasma, IV 0.21 mg/kg
observable: C0 (nM)
Write the number in nM without appending the unit.

response.value for CO[C@@H]1C[C@@H](CO)OC[C@@H]1Nc1ncnc2[nH]cc(C(=O)c3ccc(Oc4ccccc4)cc3Cl)c12 [Compound 4] (field: C0) = 562

###

- assayText: Plasma protein binding (PPB) assay, H
- Type: in vitro ADME
- settings: human, dialysis 4 hr 37° C.
- Procedure: Assay procedure: 995 μL of blank plasma of various genera were weighed, and 5 μL of assay compound working solution (400 μM) or warfarin working solution (400 μM) was added so that the final concentrations of the assay compound and warfarin in plasma sample were each 2 μM. The samples were mixed thoroughly. The final concentration of DMSO (the organic phase) was 0.5%. […] All samples were subjected to protein precipitation, and then analyzed by LC/MS/MS. […]
observable: fraction unbound at 4 h, 2 μM
Number only, please.

In plain terms, CO[C@@H]1C[C@@H](CO)OC[C@@H]1Nc1ncnc2[nH]cc(C(=O)c3ccc(Oc4ccccc4)cc3Cl)c12 [Compound 4] has a documented fraction unbound at 4 h, 2 μM of 0.004

###

- assayText: Pharmacokinetic evaluation in SD rat (intravenous)
- Assay type: in vivo
- settings: male, plasma, about 0.5 mg/kg
observable: AUC(0-inf) (µM·h)
The response must be a number in µM·h with no trailing unit.

// sample CO[C@@H]1C[C@@H](CO)OC[C@@H]1Nc1ncnc2[nH]cc(C(=O)c3ccc(Oc4ccccc4)cc3Cl)c12 , its AUC(0-inf) was 1.7

###

- assayText: Pharmacokinetic evaluation in SD rat (oral)
- Type: in vivo
- settings: male, plasma, about 2 mg/kg
observable: half-life (h)
Please reply with the bare figure in h and do not write the unit itself.

Entry under test: CO[C@@H]1C[C@@H](CO)OC[C@@H]1Nc1ncnc2[nH]cc(C(=O)c3ccc(Oc4ccccc4)cc3Cl)c12 . Its half-life was 2.33

###

- assayText: Pharmacokinetic evaluation in CD-1 mouse (intravenous)
- Assay type: in vivo
- settings: male, plasma, IV 0.21 mg/kg
observable: half-life (min)
Reply numerically in min, unit not repeated.

// recorded half-life for CO[C@@H]1C[C@@H](CO)OC[C@@H]1Nc1ncnc2[nH]cc(C(=O)c3ccc(Oc4ccccc4)cc3Cl)c12 [Compound 4] : 279

###

- assayText: Plasma protein binding (PPB) assay, M
- Format: in vitro ADME
- settings: mouse, dialysis 4 hr 37° C.
- Experimental: Assay procedure: 995 μL of blank plasma of various genera were weighed, and 5 μL of assay compound working solution (400 μM) or warfarin working solution (400 μM) was added so that the final concentrations of the assay compound and warfarin in plasma sample were each 2 μM. The samples were mixed thoroughly. The final concentration of DMSO (the organic phase) was 0.5%. […] All samples were subjected to protein precipitation, and then analyzed by LC/MS/MS. […]
observable: fraction unbound at 4 h, 2 μM

Reported fraction unbound at 4 h, 2 μM ( CO[C@@H]1C[C@@H](CO)OC[C@@H]1Nc1ncnc2[nH]cc(C(=O)c3ccc(Oc4ccccc4)cc3Cl)c12 ) = 0.004
